Activity values by entry
system: Salmonella typhimurium; test: Genotoxicity against Salmonella Typhimurium TA 1535/pSK1002 assessed as induction of umu operon expression in presence of rat liver S9 fraction; type: toxicity, organism-based; details: salmonella enterica subsp. enterica serovar typhimurium
API note: the answer field is a bare number with no unit suffix.

molecule	experimental system	Activity
CCS(=O)(=O)N1CCC2(CC1)OOC1(OO2)C2CC3CC(C2)CC1C3	Salmonella typhimurium	0.98
Nc1ccc2cc3ccccc3cc2c1 [2-AMINOANTHRACENE]	Salmonella typhimurium	7.34
O=S(=O)(C1CC1)N1CCC2(CC1)OOC1(OO2)C2CC3CC(C2)CC1C3	Salmonella typhimurium	0.99

Now, please, on to the next molecule.
What value of Activity on Salmonella typhimurium does O=C(CC1CCC2(CC1)OOC1(OO2)C2CC3CC(C2)CC1C3)N1CCOCC1 (centres undefined) have? 0.98

---

IC50 values by entry
tested on: Plasmodium falciparum; assay: Antimalarial activity against Plasmodium falciparum PH3; format: functional, organism-based
Record the value in nM, omitting the unit from your answer.

smi	quantitative readout
CCN(CC)Cc1cc(Nc2ccnc3cc(Cl)ccc23)ccc1O	4.7

Now, please, on to the next compound.
Quick one: IC50 for CCS(=O)(=O)N1CCC2(CC1)OOC1(OO2)C2CC3CC(C2)CC1C3 ? 1.9

---

tested on: Salmonella typhimurium; experiment: Genotoxicity against Salmonella Typhimurium TA 1535/pSK1002 assessed as induction of umu operon expression; assay type: toxicity, organism-based; details: salmonella enterica subsp. enterica serovar typhimurium
experimental endpoint: Activity
API note: the answer field is a bare number with no unit suffix.

compound	quantitative readout
O=C(CC1CCC2(CC1)OOC1(OO2)C2CC3CC(C2)CC1C3)N1CCOCC1 (centres undefined)	1.04
Nc1ccc2cc3ccccc3cc2c1	1.1

Quick one: Activity for CCS(=O)(=O)N1CCC2(CC1)OOC1(OO2)C2CC3CC(C2)CC1C3 ? 1.03

Quick one: Activity for O=S(=O)(C1CC1)N1CCC2(CC1)OOC1(OO2)C2CC3CC(C2)CC1C3 ? 1.05

---

assay: Cytotoxicity against rat L6 cells by resazurin reduction assay; assay type: cell-based; details: read-out: TC50 (the source's name)
experimental endpoint: CC50

Quick one: CC50 for O=S(=O)(C1CC1)N1CCC2(CC1)OOC1(OO2)C2CC3CC(C2)CC1C3 ? > 50 µM

Quick one: CC50 for CCS(=O)(=O)N1CCC2(CC1)OOC1(OO2)C2CC3CC(C2)CC1C3 ? 31 µM

---

assay: Cytotoxicity against human […] cells by resazurin reduction assay; type: cell-based; conditions: read-out: TC50 (the source's name)
CC50 values by entry

smi	CC50
CCS(=O)(=O)N1CCC2(CC1)OOC1(OO2)C2CC3CC(C2)CC1C3	> 50 µM

Now, please, on to the next compound.
Quick one: CC50 for O=S(=O)(C1CC1)N1CCC2(CC1)OOC1(OO2)C2CC3CC(C2)CC1C3 ? > 50 µM

---

remaining at 4 h values by entry
test: Chemical stability assessed as endoperoxide recovery after 4 hrs by iron degradation study; type: physicochemical; conditions: read-out: Stability
Record the value in %, omitting the unit from your answer.

compound	unit abbreviation	remaining at 4 h
O=S(=O)(c1ccccc1)N1CCC2(CC1)OOC1(OO2)C2CC3CC(C2)CC1C3	%	88.7

Quick one: remaining at 4 h for O=S(=O)(c1ccccc1)N1CCC2(CC1)COC1(OO2)C2CC3CC(C2)CC1C3 (stereo not drawn) ? 96.8

Quick one: remaining at 4 h for O=S(=O)(c1ccccc1)N1CCC2(CC1)OOC1(O2)C2CC3CC(C2)CC1C3 (stereo not drawn) ? 11
